Answer each item with its documented inhibition.
# assay: Inhibition of quorum sensing system in Pseudomonas aeruginosa PAO1-lasB-gfp at 10 uM relative to control
Kindly provide the numeric value in % only, without the unit symbol.

Sure, the documented inhibition for CCCCC1(O)C2=C(C=CCC2)C(=O)N1Cc1ccc(OCC)cc1 (stereo not drawn) is 40.5

Sure, the documented inhibition for CCCCC1(O)C2=C(C=CCC2)C(=O)N1C1CCCCC1 (stereo not drawn) is 16.4

Sure, the documented inhibition for CCCCC1(O)C2=C(C=CCC2)C(=O)N1Cc1ccc(C)cc1 (stereo not drawn) is 41.5

Sure, the documented inhibition for CCCCC1(O)C2=C(C=CCC2)C(=O)N1Cc1ccccc1OC (stereo not drawn) is 36.3

Sure, the documented inhibition for CCCCC1(O)C2=C(C=CCC2)C(=O)N1CCc1c[nH]c2ccc(OC)cc12 (stereo not drawn) is 30.6

Sure, the documented inhibition for CCCCC1(O)C2=C(C=CCC2)C(=O)N1Cc1ccc(F)cc1 (stereo not drawn) is 41.5

Sure, the documented inhibition for CCCCC1(O)C2=C(C=CCC2)C(=O)N1Cc1ccccc1Cl (stereo not drawn) is 37.6

Sure, the documented inhibition for CCCCC1(O)C2=C(C=CCC2)C(=O)N1C1CCCC1 (stereo not drawn) is 16.7

Sure, the documented inhibition for CCCCC1(O)C2=C(C=CCC2)C(=O)N1Cc1ccco1 (stereo not drawn) is 33.9

Sure, the documented inhibition for CCCCC1(O)C2=C(C=CCC2)C(=O)N1Cc1ccc(-c2ccccc2)cc1 (stereo not drawn) is 43.8

Sure, the documented inhibition for CCCCC1(O)C2=C(C=CCC2)C(=O)N1Cc1cccc(F)c1 (stereo not drawn) is 41

Sure, the documented inhibition for CCCCC1(O)C2=C(C=CCC2)C(=O)N1Cc1ccc(O)cc1 (stereo not drawn) is 40.2

Sure, the documented inhibition for CCCCC1(O)C2=C(C=CCC2)C(=O)N1Cc1ccccc1C(F)(F)F (stereo not drawn) is 45.1

Sure, the documented inhibition for CCCCC1(O)C2=C(C=CCC2)C(=O)N1Cc1ccc(N(C)C)cc1 (stereo not drawn) is 35.3

Sure, the documented inhibition for CCCCC1(O)C2=C(C=CCC2)C(=O)N1Cc1ccc(C(C)C)cc1 (stereo not drawn) is 40.7

Sure, the documented inhibition for CCCCC1(O)C2=C(C=CCC2)C(=O)N1Cc1cccc(OC)c1 (stereo not drawn) is 29.4

Sure, the documented inhibition for CCCCC1(O)C2=C(C=CCC2)C(=O)N1CCC (stereo not drawn) is 21.1

Sure, the documented inhibition for CCCCC1(O)C2=C(C=CCC2)C(=O)N1CCCCc1ccccc1 (stereo not drawn) is 18.1

Sure, the documented inhibition for CCCCC1(O)C2=C(C=CCC2)C(=O)N1Cc1ccc(OC)cc1 (stereo not drawn) is 40.7

Sure, the documented inhibition for CCCCC1(O)C2=C(C=CCC2)C(=O)N1c1ncccn1 (stereo not drawn) is 35.5

Sure, the documented inhibition for CCCCC1(O)C2=C(C=CCC2)C(=O)N1Cc1ccc(Cl)cc1 (stereo not drawn) is 47.4

Sure, the documented inhibition for CCCCC1(O)C2=C(C=CCC2)C(=O)N1CC (stereo not drawn) is 17.4

Sure, the documented inhibition for CCCCC1(O)C2=C(C=CCC2)C(=O)N1Cc1ccc(C(F)(F)F)cc1 (stereo not drawn) is 51.6

Sure, the documented inhibition for CCCCC1(O)C2=C(C=CCC2)C(=O)N1Cc1cccc(C(F)(F)F)c1 (stereo not drawn) is 39.4

Sure, the documented inhibition for C#CCN1C(=O)C2=C(CCC=C2)C1(O)CCCC (stereo not drawn) is 21.5

Sure, the documented inhibition for CCCCCN1C(=O)C2=C(CCC=C2)C1(O)CCCC (stereo not drawn) is 21.2

Sure, the documented inhibition for CCCCC1(O)C2=C(C=CCC2)C(=O)N1Cc1cccs1 (stereo not drawn) is 29.7

Sure, the documented inhibition for CCCCC1(O)C2=C(C=CCC2)C(=O)N1Cc1cccc(Cl)c1 (stereo not drawn) is 34.2

Sure, the documented inhibition for CCCCC1(O)C2=C(C=CCC2)C(=O)N1Cc1ccc(C#N)cc1 (stereo not drawn) is 44.3

Sure, the documented inhibition for CCCCC1(O)C2=C(C=CCC2)C(=O)N1Cc1cccc(-c2ccccc2)c1 (stereo not drawn) is 32.9

Sure, the documented inhibition for CCCCN1C(=O)C2=C(CCC=C2)C1(O)CCCC (stereo not drawn) is 21.6

Sure, the documented inhibition for CCCCC1(O)C2=C(C=CCC2)C(=O)N1Cc1ccccc1F (stereo not drawn) is 40.4

Sure, the documented inhibition for CCCCC1(O)C2=C(C=CCC2)C(=O)N1Cc1ccc(Br)cc1 (stereo not drawn) is 45.2

Sure, the documented inhibition for CCCCC1(O)C2=C(C=CCC2)C(=O)N1c1ccccc1 (stereo not drawn) is 15.1

Sure, the documented inhibition for CCCCC1(O)C2=C(C=CCC2)C(=O)N1CCc1ccccc1 (stereo not drawn) is 11.6

Sure, the documented inhibition for CCCCC1(O)C2=C(C=CCC2)C(=O)N1CCc1c[nH]c2ccc(O)cc12 (stereo not drawn) is 37.7

Sure, the documented inhibition for CCCCC1(O)C2=C(C=CCC2)C(=O)N1Cc1cccnc1 (stereo not drawn) is 31.9

Sure, the documented inhibition for CCCCC1(O)C2=C(C=CCC2)C(=O)N1C1CC1 (stereo not drawn) is 20.4
